The origin of these recorded values is PubChem BioAssay (NCI).

# Test system: TK-10 renal
# METHOD_NOTES: NCI-60 one-dose screen, 48 h (100 = growth as untreated, 0 = no growth, -100 = all killed)
# EXPERIMENTAL_PARAMETERS: 10 µM unless noted
This is part of a sample that, as a whole, favours compounds with a hit. Of some 83,000 tested, about 20% had one in any assay.
Hi, to clarify the labels: YES covers growth from 70% upward, NO covers anything below 70%.

>>> print(df.to_string())
                                   compound  label_value
0  CCCC(=O)NC(c1cccnc1)c1cc(C(C)(C)C)c2cccnc2c1O (configuration not stated)           NO
1  COc1cc(-c2ccc3ncnc(NCc4ccccc4)c3c2)cnc1OC           NO
2  COc1ccc(-n2c(SCc3n[nH]c(=S)o3)nc3ccc(Cl)cc3c2=O)cc1          YES

Input: hey, is growth for this one >= 70%? "C[C@H](CCC(=O)NCc1ccc(C(=O)Nc2ccccc2N)cc1)[C@H]1CC[C@H]2[C@@H]3[C@@H](O)C[C@@H]4C[C@H](O)CC[C@]4(C)[C@H]3CC[C@]12C"
Output: NO
